Entry source: ChEMBL document CHEMBL2413072

Tested on: SK-OV-3
Assay: Growth inhibition of human SKOV3 cells assessed as growth inhibition at 10 uM by sulforhodamine B assay
Format: functional
Conditions: read-out: GI
Catalogue of inhibition of growth at 10 µM readings, one per entry.
Reply with just the number (in %).

In the examples that follow, each entry is paired with its recorded inhibition of growth at 10 µM.
Query :: Tell me measured inhibition of growth at 10 µM for `CC(C)=CC(=O)O[C@@H]1CC(C)(C)C[C@H]2C3=CC[C@@H]4[C@@]5(C)CC[C@H](O)C(C)(C)[C@@H]5CC[C@@]4(C)[C@]3(C)CC[C@@]12C(=O)O` please.
Result :: 10.6

Query :: Return inhibition of growth at 10 µM (reported value) for this molecule: `CC1(C)C[C@@H](O)[C@]2(C(=O)O)CC[C@]3(C)C(=CC[C@@H]4[C@@]5(C)C/C(=C\C=C\c6ccccc6)C(=O)C(C)(C)[C@@H]5CC[C@]43C)[C@@H]2C1`
Result :: 14.3

# evaluate next
Query :: Supply measured inhibition of growth at 10 µM of `C/C=C(/C)C(=O)O[C@@H]1CC(C)(C)C[C@H]2C3=CC[C@@H]4[C@@]5(C)CC[C@H](O)C(C)(C)[C@@H]5CC[C@@]4(C)[C@]3(C)CC[C@@]12C(=O)O` in your reply.
Result :: 58.2

----------
# key: entry, value: growth at 0.01 µM
System: MDA-MB-435
Assay: Growth inhibition of human MDA-MB-435 cells assessed as cell growth at 10^-8 M by sulforhodamine B assay
Type: functional
Conditions: read-out: Activity

Completed entries (count: 4):
Query :: Quick one: give measured growth at 0.01 µM for `CC1(C)C[C@@H](O)[C@]2(C(=O)O)CC[C@]3(C)C(=CC[C@@H]4[C@@]5(C)C/C(=C\C=C\c6ccccc6)C(=O)C(C)(C)[C@@H]5CC[C@]43C)[C@@H]2C1`
Result :: 98%

Query :: Give me measured growth at 0.01 µM, please, for this compound: `CC(C)=CC(=O)O[C@@H]1CC(C)(C)C[C@H]2C3=CC[C@@H]4[C@@]5(C)CCC(=O)C(C)(C)[C@@H]5CC[C@@]4(C)[C@]3(C)CC[C@@]12C(=O)O`
Result :: 99%

Query :: Consider the compound C/C=C(/C)C(=O)O[C@@H]1CC(C)(C)C[C@H]2C3=CC[C@@H]4[C@@]5(C)CC[C@H](O)C(C)(C)[C@@H]5CC[C@@]4(C)[C@]3(C)CC[C@@]12C(=O)O [Reduced Lantadene A] and give its recorded growth at 0.01 µM.
Result :: 98%

Query :: // Input: CC(C)=CC(=O)O[C@@H]1CC(C)(C)C[C@H]2C3=CC[C@@H]4[C@@]5(C)CC[C@H](O)C(C)(C)[C@@H]5CC[C@@]4(C)[C@]3(C)CC[C@@]12C(=O)O [Reduced Lantadene B] . Output its growth at 0.01 µM only.
Result :: 100%

Please turn your attention to the following entry.
Query :: # return recorded growth at 0.01 µM for input C/C=C(/C)C(=O)O[C@@H]1CC(C)(C)C[C@H]2C3=CC[C@@H]4[C@@]5(C)CCC(=O)C(C)(C)[C@@H]5CC[C@@]4(C)[C@]3(C)CC[C@@]12C(=O)O [LANTADENE A]
Result :: 96%

----------
Test system: A549
Assay: Growth inhibition of human A549/ATCC cells assessed as cell growth at 10^-8 M by sulforhodamine B assay
Type: functional
Conditions: read-out: Activity
Parameter: growth at 0.01 µM. Scope: all listed entries.
// units = %; emit number, no label

// known answers, use as guide
Query :: Query growth at 0.01 µM for `C/C=C(/C)C(=O)O[C@@H]1CC(C)(C)C[C@H]2C3=CC[C@@H]4[C@@]5(C)CCC(=O)C(C)(C)[C@@H]5CC[C@@]4(C)[C@]3(C)CC[C@@]12C(=O)O`
Result :: 94

Query :: State its growth at 0.01 µM: `C/C=C(/C)C(=O)O[C@@H]1CC(C)(C)C[C@H]2C3=CC[C@@H]4[C@@]5(C)CC[C@H](O)C(C)(C)[C@@H]5CC[C@@]4(C)[C@]3(C)CC[C@@]12C(=O)O`
Result :: 93

Query :: Consider the molecule `CC(C)=CC(=O)O[C@@H]1CC(C)(C)C[C@H]2C3=CC[C@@H]4[C@@]5(C)CCC(=O)C(C)(C)[C@@H]5CC[C@@]4(C)[C@]3(C)CC[C@@]12C(=O)O` and give its recorded growth at 0.01 µM.
Result :: 93

Query :: Return growth at 0.01 µM for the following molecule: `CC(C)=CC(=O)O[C@@H]1CC(C)(C)C[C@H]2C3=CC[C@@H]4[C@@]5(C)CC[C@H](O)C(C)(C)[C@@H]5CC[C@@]4(C)[C@]3(C)CC[C@@]12C(=O)O`
Result :: 91

Let's switch to this molecule now.
Query :: // Input: `CC1(C)C[C@@H](O)[C@]2(C(=O)O)CC[C@]3(C)C(=CC[C@@H]4[C@@]5(C)C/C(=C\C=C\c6ccccc6)C(=O)C(C)(C)[C@@H]5CC[C@]43C)[C@@H]2C1` . Output its growth at 0.01 µM only.
Result :: 98

----------
Test system: SW-620
Experiment: Growth inhibition of human SW620 cells assessed as cell growth at 10 uM by sulforhodamine B assay
Format: functional
Details: read-out: Activity
result-type: growth at 10 µM (%)
Kindly provide the numeric value in % only, without the unit symbol.

Worked examples, 2 compounds total:
Query :: Provide measured growth at 10 µM value, entry: `CC1(C)C[C@@H](O)[C@]2(C(=O)O)CC[C@]3(C)C(=CC[C@@H]4[C@@]5(C)C/C(=C\C=C\c6ccccc6)C(=O)C(C)(C)[C@@H]5CC[C@]43C)[C@@H]2C1`
Result :: 55.8

Query :: Output measured growth at 10 µM for this item: `C/C=C(/C)C(=O)O[C@@H]1CC(C)(C)C[C@H]2C3=CC[C@@H]4[C@@]5(C)CCC(=O)C(C)(C)[C@@H]5CC[C@@]4(C)[C@]3(C)CC[C@@]12C(=O)O`
Result :: 68.7

Further cases:
Query :: Please look at this compound and report its growth at 10 µM: `CC(C)=CC(=O)O[C@@H]1CC(C)(C)C[C@H]2C3=CC[C@@H]4[C@@]5(C)CC[C@H](O)C(C)(C)[C@@H]5CC[C@@]4(C)[C@]3(C)CC[C@@]12C(=O)O`
Result :: 66.9

----------
Test system: MDA-MB-468
Test: Growth inhibition of human MDA-MB-468 cells by sulforhodamine B assay
Type: functional
Conditions: read-out: pLC50 (the source's name) (converted)
Quick reference: CC50 of the listed items.
Field format: number, assumed µM, no unit text.

Query :: Given `CC(C)=CC(=O)O[C@@H]1CC(C)(C)C[C@H]2C3=CC[C@@H]4[C@@]5(C)CC[C@H](O)C(C)(C)[C@@H]5CC[C@@]4(C)[C@]3(C)CC[C@@]12C(=O)O` , respond with its CC50.
Result :: 57.5

Query :: Note down CC50 recorded for `C/C=C(/C)C(=O)O[C@@H]1CC(C)(C)C[C@H]2C3=CC[C@@H]4[C@@]5(C)CC[C@H](O)C(C)(C)[C@@H]5CC[C@@]4(C)[C@]3(C)CC[C@@]12C(=O)O`
Result :: 7.94

From here, focus on the item given below.
Query :: Please report CC50 for the following compound: `CC1(C)C[C@@H](O)[C@]2(C(=O)O)CC[C@]3(C)C(=CC[C@@H]4[C@@]5(C)C/C(=C\C=C\c6ccccc6)C(=O)C(C)(C)[C@@H]5CC[C@]43C)[C@@H]2C1`
Result :: 37.2

----------
CC50: recorded values
System: TK-10
Assay: Growth inhibition of human TK10 cells by sulforhodamine B assay
Type: functional
Settings: read-out: LC50 (the source's name)
Reply numerically in µM, unit not repeated.

Query :: Determine its reported CC50: `CC1(C)C[C@@H](O)[C@]2(C(=O)O)CC[C@]3(C)C(=CC[C@@H]4[C@@]5(C)C/C(=C\C=C\c6ccccc6)C(=O)C(C)(C)[C@@H]5CC[C@]43C)[C@@H]2C1`
Result :: 42.4

More entries:
Query :: Indicate its recorded CC50; the compound in question is C/C=C(/C)C(=O)O[C@@H]1CC(C)(C)C[C@H]2C3=CC[C@@H]4[C@@]5(C)CC[C@H](O)C(C)(C)[C@@H]5CC[C@@]4(C)[C@]3(C)CC[C@@]12C(=O)O [Reduced Lantadene A]
Result :: 9.55

Query :: Recall and state the measured CC50 for CC(C)=CC(=O)O[C@@H]1CC(C)(C)C[C@H]2C3=CC[C@@H]4[C@@]5(C)CC[C@H](O)C(C)(C)[C@@H]5CC[C@@]4(C)[C@]3(C)CC[C@@]12C(=O)O [Reduced Lantadene B] .
Result :: 71.6

----------
Below, each of the compounds is paired with its reported inhibition of growth at 10 µM value.
System: SNB-75
Experiment: Growth inhibition of human SNB75 cells assessed as growth inhibition at 10 uM by sulforhodamine B assay
Format: functional
Settings: read-out: GI

Field: example entries. Status: answers known.
Query :: Give the measured inhibition of growth at 10 µM for `CC1(C)C[C@@H](O)[C@]2(C(=O)O)CC[C@]3(C)C(=CC[C@@H]4[C@@]5(C)CCC(=O)C(C)(C)[C@@H]5CC[C@]43C)[C@@H]2C1`
Result :: < 10%

Query :: Read the entry `CC(C)=CC(=O)O[C@@H]1CC(C)(C)C[C@H]2C3=CC[C@@H]4[C@@]5(C)CC[C@H](O)C(C)(C)[C@@H]5CC[C@@]4(C)[C@]3(C)CC[C@@]12C(=O)O` and write its reported inhibition of growth at 10 µM.
Result :: 26.8%

Query :: For the compound `C/C=C(/C)C(=O)O[C@@H]1CC(C)(C)C[C@H]2C3=CC[C@@H]4[C@@]5(C)CCC(=O)C(C)(C)[C@@H]5CC[C@@]4(C)[C@]3(C)CC[C@@]12C(=O)O` , give its reported inhibition of growth at 10 µM.
Result :: 13.1%

Query :: Return inhibition of growth at 10 µM for the following compound: `CC(C)=CC(=O)O[C@@H]1CC(C)(C)C[C@H]2C3=CC[C@@H]4[C@@]5(C)CCC(=O)C(C)(C)[C@@H]5CC[C@@]4(C)[C@]3(C)CC[C@@]12C(=O)O`
Result :: 30%

Now consider the entry below.
Query :: Please report the measured inhibition of growth at 10 µM for `C/C=C(/C)C(=O)O[C@@H]1CC(C)(C)C[C@H]2C3=CC[C@@H]4[C@@]5(C)CC[C@H](O)C(C)(C)[C@@H]5CC[C@@]4(C)[C@]3(C)CC[C@@]12C(=O)O`
Result :: 88%
